- Tested on: MCF7
- protocol-details: Antiproliferative activity against human MCF7 cells assessed as reduction in cell viability preincubated for 24 hrs followed by irradiated with green LED for 2 hrs then incubated in dark for 24 hrs in drug free medium by MTT assay
- Type: functional, cell-based
- condition-label: MCF7, light or radiation study
readout-kind: IC50 (nM)

(P) CC1=C(I)C(C)=[N+]2C1=C(c1ccc(OCCCCCCCCBr)cc1)c1c(C)c(I)c(C)n1[B-]2(F)F
(Q) CC1=C(I)C(C)=[N+]2C1=C(c1ccc(OCCCCBr)cc1)c1c(C)c(I)c(C)n1[B-]2(F)F
Query string: Record comparison, field IC50: mark the lower of P and Q . Refer to your chosen item by its label in the answer.
Result string: Q

###

- Test system: HCT-116
- protocol-details: Antiproliferative activity against human HCT116 cells assessed as reduction in cell viability preincubated for 24 hrs followed by irradiated with green LED for 2 hrs then incubated in dark for 24 hrs in drug free medium by MTT assay
- Assay type: functional, cell-based
- condition-label: HCT-116, light or radiation study
readout-kind: IC50 (nM)

(I) CC1=C(I)C(C)=[N+]2C1=C(c1ccc(OCCCCCCCCBr)cc1)c1c(C)c(I)c(C)n1[B-]2(F)F
(II) CC1=C(I)C(C)=[N+]2C1=C(c1ccc(OCCCCBr)cc1)c1c(C)c(I)c(C)n1[B-]2(F)F
Query string: Record comparison, field IC50: mark the lower of I and II . Refer to your chosen item by its label in the answer.
Result string: II
